Target Entity: AgHse1
Assay Protocol: SPOT peptide array binding signal intensity (averaged, normalized) (arbitrary units (background-subtracted, floor 0; scale differs between SH3 domains)); higher = stronger binding of the SH3 domain to the peptide
Documented SPOT peptide array binding signal intensity across a set of binders
Measured Quantity: SPOT peptide array binding signal intensity

INSERT INTO assay_data (binder, data_value) VALUES
  ('NLDRSKISLPDFDDE', 716),
  ('VLRFLGFPLPIFEKG', 845),
  ('RMVRRRPLRVQFSAR', 1410),
  ('VTHRLRISIPGITGR', 650),
  ('PSPSSSPPPIPKTAN', 27),
  ('SLSRRRFSLPSMPNV', 1010),
  ('TKHKAPPPPPPTAET', 4);
